Provenance of the data: patent US20260015350A1

- measured-target: KRas^G12V (Homo sapiens, UniProt P01116, G12V)
- Construct: Biotinylated KRas (corresponding to amino acids 1-169, produced at Accelegan Inc.); biotin (biotinylated); purchased Accelegan Inc
- Sequence (P01116 1-169 isoform P01116-2 G12V): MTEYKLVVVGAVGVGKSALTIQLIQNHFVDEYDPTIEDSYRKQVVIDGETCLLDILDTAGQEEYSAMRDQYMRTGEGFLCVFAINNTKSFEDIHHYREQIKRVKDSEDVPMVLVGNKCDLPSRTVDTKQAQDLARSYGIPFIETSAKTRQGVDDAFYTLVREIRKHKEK
- method-summary: KRas binding assay (TR-FRET tracer displacement), KRas G12V
metric-name: IC50

Please review the entries below; each comes with its answer.
CCc1c(F)ccc2cc(O)cc(-c3ncc4c(N5CC6(CO)CC5CCO6)nc(OC[C@@]56CCCN5C[C@H](F)C6)nc4c3F)c12 (stereo partly drawn) = 266 nM
CCc1c(F)ccc2cc(O)cc(-c3ncc4c(N5CCCC6(C5)NC(=O)NC6=O)nc(OC[C@]56CCCN5[C@H](COC(=O)N(C)C)CC6)nc4c3F)c12 (stereo partly drawn) = < 2 nM

Okay, next one:
Ask: Note IC50 for the molecule shown: CCc1c(F)ccc2cc(O)cc(-c3ncc4c(N5CC6CCC(CC(=O)N(C)C)(C6)C5)nc(OC[C@@]56CCCN5C[C@H](F)C6)nc4c3F)c12 (stereo partly drawn)
Result: 3 nM

###

- measured-target: KRas^G12R (Homo sapiens, UniProt P01116, G12R)
- Construct: Biotinylated KRas (corresponding to amino acids 1-169, produced at Accelegan Inc.); biotin (biotinylated); purchased Accelegan Inc
- Sequence (P01116 1-169 isoform P01116-2 G12R): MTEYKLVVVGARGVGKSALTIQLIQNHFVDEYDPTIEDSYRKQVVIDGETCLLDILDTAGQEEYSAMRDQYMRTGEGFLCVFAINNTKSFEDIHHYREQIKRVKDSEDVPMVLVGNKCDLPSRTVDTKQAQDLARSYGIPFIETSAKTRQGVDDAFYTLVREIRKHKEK
- method-summary: KRas binding assay (TR-FRET tracer displacement), KRas G12R
Listing of entries alongside the reported IC50.
I only need the number, in nM, no unit after it.

Answered cases to consult:
CCc1c(F)ccc2cc(O)cc(-c3ncc4c(N5CCCC6(CCNS(=O)(=O)N6)C5)nc(OC[C@@]56CCCN5C[C@H](F)C6)nc4c3F)c12 (stereo partly drawn) = 10
CCc1c(F)ccc2cc(O)cc(-c3ncc4c(N5CCC(C#N)CC5)nc(OC[C@@]56CCCN5C[C@H](F)C6)nc4c3F)c12 = 4
CCc1c(F)ccc2c(Br)c(O)cc(-c3ncc4c(N5C[C@@H]6C[C@H](C5)[C@H](O)C6)nc(OC[C@@]56CCCN5C[C@H](F)C6)nc4c3F)c12 = 263
CCc1c(F)ccc2cc(O)cc(-c3ncc4c(N5CCC[C@@](C)(O)C5)nc(OCC56CC5CN(C)C6)nc4c3F)c12 (stereo partly drawn) = 3
Oc1cc(-c2ncc3c(N4C[C@@H]5C[C@H](C4)[C@H](O)C5)nc(OC[C@@]45CCCN4C[C@H](F)C5)nc3c2F)c2ccc(Cl)cc2c1 = 18
CCc1c(F)ccc2cc(O)cc(-c3ncc4c(N5CC[C@@H]6C(=O)NC(=O)[C@@H]6CC5)nc(OC[C@@]56CCCN5C[C@H](F)C6)nc4c3F)c12 = 701
CCc1cccc2cc3[nH]ncc3c(-c3ncc4c(N5CCCn6nc(C(=O)N(C)C)cc6C5)nc(OC[C@@]56CCCN5C[C@H](F)C6)nc4c3F)c12 = 7
Oc1cc2ccccc2c(-c2ncc3c(N4C[C@@H]5C[C@H](C4)[C@H](O)C5)nc(OC[C@@]45CCCN4C[C@H](F)C5)nc3c2F)c1Cl = 132

Next compound, IC50 to be filled in.
Ask: Recall the reported IC50 of "CCc1c(F)ccc2cc(O)cc(-c3ncc4c(N[C@@H]5C[C@@H](C)S(=O)(=O)[C@@H](C)C5)nc(OC[C@@]56CCCN5C[C@H](F)C6)nc4c3F)c12" when tested on KRas^G12R (Homo sapiens, UniProt P01116, G12R).
Result: 34
